B1: GMCL1 (parent)
chain: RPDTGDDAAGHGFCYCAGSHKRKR

- Variants of: B1
- testProtocol: protein stability index of a GFP-peptide fusion (GPS, HEK-293T) (PSI 1-6); higher = more stable;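 further: lentivirally expressed fusions sorted by FACS into six bins by GFP to DsRed ratio, PSI derived from sequencing read proportions per bin multiplied by bin number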
- experimentalSetup: c terminus: a fixed tail appended
Please go through the items and note down their protein stability index.
Answers are plain numbers.

Here are 5 variants together with their reported answers.
[[record]]
mutantdesignation = "H11G"
quantitykind = "protein stability index"
datavalue = 3.18

[[record]]
mutantdesignation = "P2G"
quantitykind = "protein stability index"
datavalue = 3.01

[[record]]
mutantdesignation = "R1W"
quantitykind = "protein stability index"
datavalue = 3.2

[[record]]
mutantdesignation = "P2H"
quantitykind = "protein stability index"
datavalue = 2.96

[[record]]
mutantdesignation = "D6E"
quantitykind = "protein stability index"
datavalue = 3.46


For every item below, please supply its protein stability index.
1. D7E
2. K21L
3. D6C
4. A17S
5. A8E
6. G5K

1. 3.95
2. 2.69
3. 3.8
4. 2.77
5. 3.26
6. 3.45

For every item below, please supply its protein stability index.
1. A9V
2. H20F
3. C16N
4. D7R
5. G5Y
6. G5P
7. G18D

2.96
3.24
4.56
3.51
3.27
3.48
2.84
